Values compiled from PubChem BioAssay AID1259407.

Test system: CCRIS mutagenicity, Ames/micronucleus/aberration tests
Assay: CCRIS mutagenicity studies
Settings: Test System: AMES SALMONELLA TYPHIMURIUM; Strain/Indicator: TA100; Metabolic Activation: RAT, LIVER, S-9, KANECHLOR 500; Method: PREINCUBATION
Excerpt: The CCRIS database contains chemical records with carcinogenicity, mutagenicity, tumor promotion, and tumor inhibition test results. It was developed by the National Cancer Institute (NCI). Data are derived from studies cited in primary journals, current awareness tools, NCI reports, and other sources. Test results have been reviewed by experts in carcinogenesis and mutagenesis. CCRIS provides historical information from the years 1985 - 2011. It is no longer updated. […]
The source made the active and inactive calls. The rule behind the calls is not given here.
Pick one: active, inactive

Nc1cc([N+](=O)[O-])cc([N+](=O)[O-])c1: active
O=C(Cl)c1ccc([N+](=O)[O-])cc1: active
CC(=O)Nc1ccc2ncccc2c1: active

Request: Record request — test call for `O=[N+]([O-])c1ccc(Br)cc1`
Result: active

Request: Hi, sorry to bother you, what did the test record for `Nc1ccccc1[N+](=O)[O-]` ?
Result: inactive

Request: Outcome? `CC(=O)Nc1cccc2ncccc12`
Result: inactive

Request: Test call for this compound, please: OCC(Cl)CCl (stereo not drawn)
Result: active

Request: GET /call?item= `C[N+](=O)[O-]` returns the recorded outcome of this test.
Result: inactive
